experimental_target: α-chymotrypsin from bovine pancreas (Bos taurus, UniProt P00766, DEL14-15/DEL147-148)
Construct: purchased Sigma Type II; host or cells: bovine pancreas
protocol_description: Proteolytic stability against chymotrypsin
Format: in vitro ADME
cond: cattle, isolated enzyme chymotrypsin; 55.5 μM peptide, 0.55 μg/ml α-chymotrypsin from bovine pancreas, ammonium bicarbonate buffer pH 7.5, 37 °C, 15–480 min, intact peptide by RP-HPLC, n = 3, nonlinear regression fit; read-out: Half-life (min), α-chymotrypsin
Where no end group is shown, it is not given here.
Listed sequences paired with reported half-life at 55.5 μM
measurement_label: half-life at 55.5 μM

[
  {
    "chain_sequence": "ETYLMFWIGVTSVLLLFIVYAYMYILWGRKKRRQRRR [TM5-TAT, reference compound]",
    "data_value": "28 min"
  },
  {
    "chain_sequence": "GRKKRRQRRRKTLVLILVVLIICWGPLLAIMVY [TM6-TAT, reference compound]",
    "data_value": "32 min"
  }
]

---

experimental_target: α-chymotrypsin from bovine pancreas (Bos taurus, UniProt P00766, DEL14-15/DEL147-148)
Construct: purchased Sigma Type II; host or cells: bovine pancreas
protocol_description: Proteolytic stability against chymotrypsin
Type: in vitro ADME
cond: cattle, isolated enzyme chymotrypsin, pH 7.5
Where a SMILES comes first, the peptide text is derived from it. Bridges are numbered along the chain shown (N, C = ends). [ ]: non-standard residue; d: D form. S5 = C=CCCC[C@](C)(N)C(=O)O; Nle = CCCC[C@H](N)C(=O)O
measurement_label: half-life at 55.5 μM (h)

[
  {
    "compound": "CCCC[C@@H]1NC(=O)[C@H](Cc2ccc(O)cc2)NC(=O)[C@@](C)(NC(=O)[C@H](Cc2ccc(O)cc2)NC(=O)[C@@H](N)C(C)C)CCC/C=C\\CCC[C@@](C)(C(=O)N[C@H](C(=O)N[C@@H](CC(C)C)C(=O)N[C@@H](Cc2c[nH]c3ccccc23)C(N)=O)[C@@H](C)CC)NC1=O [Peptide 9] (H-VY[S5]Y[Nle][S5]ILW-NH2; staple (Z) 3-6)",
    "data_value": 3.3
  },
  {
    "compound": "C=CCCC[C@](C)(NC(=O)[C@H](Cc1ccc(O)cc1)NC(=O)[C@@H](N)C(C)C)C(=O)N[C@@H](Cc1ccc(O)cc1)C(=O)N[C@@H](CCCC)C(=O)N[C@@](C)(CCCC=C)C(=O)N[C@H](C(=O)N[C@@H](CC(C)C)C(=O)N[C@@H](Cc1c[nH]c2ccccc12)C(N)=O)[C@@H](C)CC [Peptide 11] (H-VY[S5]Y[Nle][S5]ILW-NH2)",
    "data_value": 1.32
  }
]

---

experimental_target: trypsin from porcine pancreas (Sus scrofa, UniProt P00761)
Construct: purchased Sigma; host or cells: porcine pancreas
Sequence (P00761 9-231): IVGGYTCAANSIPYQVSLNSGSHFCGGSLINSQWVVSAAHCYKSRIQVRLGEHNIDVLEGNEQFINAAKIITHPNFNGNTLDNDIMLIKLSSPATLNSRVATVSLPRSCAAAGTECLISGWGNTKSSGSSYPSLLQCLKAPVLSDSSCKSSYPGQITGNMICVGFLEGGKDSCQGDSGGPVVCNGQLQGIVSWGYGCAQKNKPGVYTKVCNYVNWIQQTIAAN
protocol_description: Proteolytic stability against trypsin
Format: in vitro ADME
cond: pig, isolated enzyme trypsin; 55.5 μM peptide, 0.55 μg/ml trypsin from porcine pancreas, ammonium bicarbonate buffer pH 7.5, 37 °C, 15–480 min, intact peptide by RP-HPLC (Fmoc-Gly internal standard), n = 3, nonlinear regression fit; read-out: Half-life (min), trypsin
Where no end group is shown, it is not given here.
Listed sequences paired with reported half-life at 55.5 μM

[
  {
    "chain_sequence": "ETYLMFWIGVTSVLLLFIVYAYMYILWGRKKRRQRRR [TM5-TAT, reference compound]",
    "half-life at 55.5 μM / min": 33
  },
  {
    "chain_sequence": "GRKKRRQRRRKTLVLILVVLIICWGPLLAIMVY [TM6-TAT, reference compound]",
    "half-life at 55.5 μM / min": 40
  }
]
